# target_under_test: Muscarinic acetylcholine receptor M5 (Rattus norvegicus, UniProt P08911)
# Sequence (P08911 whole entry): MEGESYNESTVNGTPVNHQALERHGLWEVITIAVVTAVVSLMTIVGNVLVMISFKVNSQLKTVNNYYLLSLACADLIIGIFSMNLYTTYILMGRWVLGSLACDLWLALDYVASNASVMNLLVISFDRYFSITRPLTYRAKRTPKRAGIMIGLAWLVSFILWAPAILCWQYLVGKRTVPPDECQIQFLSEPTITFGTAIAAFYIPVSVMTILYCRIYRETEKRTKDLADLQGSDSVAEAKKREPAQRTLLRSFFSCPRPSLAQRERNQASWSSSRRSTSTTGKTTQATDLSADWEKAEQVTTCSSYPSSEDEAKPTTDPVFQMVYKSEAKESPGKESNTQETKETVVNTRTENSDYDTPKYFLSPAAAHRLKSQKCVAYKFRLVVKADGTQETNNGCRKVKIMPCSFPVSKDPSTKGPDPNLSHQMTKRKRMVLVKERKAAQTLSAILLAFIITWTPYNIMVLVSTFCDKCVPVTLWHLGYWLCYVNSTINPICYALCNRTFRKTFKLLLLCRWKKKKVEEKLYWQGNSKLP
# assay_text: Antagonist activity at rat muscarinic M5 receptor expressed in CHO cells assessed as inhibition of Ach-induced calcium response
# Assay type: functional, cell-based
# test_context: cho; read-out: IC50
property_label: IC50

Prompt line: For Cc1ccccc1CN1CCC(N2CCC(n3c(=O)[nH]c4ccccc43)C(F)C2)CC1 (stereo unspecified) , what is its reported IC50?
Response line: > 10 µM

* * *

# target_under_test: Muscarinic acetylcholine receptor M2 (Homo sapiens, UniProt P08172)
# Sequence (P08172 whole entry): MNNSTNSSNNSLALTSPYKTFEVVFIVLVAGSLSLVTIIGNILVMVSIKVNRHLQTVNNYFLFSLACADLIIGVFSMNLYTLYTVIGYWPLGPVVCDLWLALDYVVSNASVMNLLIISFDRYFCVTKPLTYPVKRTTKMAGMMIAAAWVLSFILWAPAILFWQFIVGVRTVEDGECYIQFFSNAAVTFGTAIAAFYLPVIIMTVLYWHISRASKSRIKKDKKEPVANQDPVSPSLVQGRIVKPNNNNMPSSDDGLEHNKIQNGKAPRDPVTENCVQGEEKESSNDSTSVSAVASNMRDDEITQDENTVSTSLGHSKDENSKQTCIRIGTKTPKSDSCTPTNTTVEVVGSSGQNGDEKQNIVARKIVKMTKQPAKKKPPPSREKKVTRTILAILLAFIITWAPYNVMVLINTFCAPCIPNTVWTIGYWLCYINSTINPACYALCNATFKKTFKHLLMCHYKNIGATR
# assay_text: Antagonist activity at human muscarinic M2 receptor expressed in CHO cells assessed as inhibition of Ach-induced calcium response
property_label: IC50 (µM)
Respond with the bare value in µM.

Prompt line: For "Cc1ccccc1CN1CCC(N2CCC(n3c(=O)[nH]c4ccccc43)CC2)CC1" , what is its reported IC50?
Response line: 3.5
